TARGET_UNDER_TEST: LNX1_3, Q8TBB1
Sequence (Q8TBB1 500-596): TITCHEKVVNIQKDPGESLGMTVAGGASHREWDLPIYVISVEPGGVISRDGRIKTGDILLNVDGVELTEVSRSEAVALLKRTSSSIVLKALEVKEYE
ASSAY_OVERVIEW: holdup assay
Design: key: below the threshold = too weak to quantify, mostly under pKd 3.1 to 4
SETUP_CONDITIONS: plain residues with an end cap or a label only (N-terminal biotin on a linker: ado-ado)
EXPERIMENTAL_ENDPOINT: pKd

BINDER | READING
PDGQCTVTEV [RNF146, Q9NTX7] | below the threshold
LRSPRTPSEV [OR10G3, Q8NGC4] | below the threshold
YNNCLEILRV [DCAF7, P61962] | 3.94
LSEFKAMDSI [CTNNA1, P35221] | below the threshold
TASPAKETSF [SLC2A7, Q6PXP3] | below the threshold
PKRSFIESNV [TANC1, Q9C0D5] | below the threshold
HLRARKSEWV [GJD4, Q96KN9] | below the threshold
PRAEAEDSFL [PDGFRB, P09619] | below the threshold
CLREWCDAFL [BANF1, O75531] | below the threshold
NLSIEKETKL [ASNSD1, Q9NWL6] | below the threshold
LGRSTPQSEV [DGKH, Q86XP1] | below the threshold
QSLNRMEYIV [JAG1, P78504] | 3.96
KSGKQTMLVV [TRIM29, Q14134;Q14134-2] | below the threshold
SNAGNTATKA [NOSTRIN, Q8IVI9] | below the threshold
GQEEQVTTRL [TRPC5, Q9UL62] | below the threshold
EVEEFPETSV [TRPV3, Q8NET8] | below the threshold
YYKRPVQEWV [MMP24, Q9Y5R2] | below the threshold
TSQESEDTYL [TBC1D10A, Q9BXI6] | below the threshold
GNSVLKSTQF [SLC22A12, Q96S37] | below the threshold
KKAPTNEFYA [SDC4, P31431] | below the threshold
TPPAAKKSRI [BAZ1A, Q9NRL2] | below the threshold
LPHGHSTTRV [NLGN4X, Q8N0W4] | below the threshold
MLSKQSESAI [FLVCR1, Q9Y5Y0] | below the threshold
RHGSCVETSL [TMEM151B, Q8IW70] | below the threshold
SAAKVLTSMC [GHRHR, Q02643] | below the threshold
TSSMRGMDAV [RSRC2, Q7L4I2] | below the threshold
VDSTVKVWTC [TRAF7, Q6Q0C0] | 3.8
QGLAERISVL [PRKD2, Q9BZL6] | below the threshold
VNKSKLLTDV [KCNA1, Q09470] | below the threshold
SKENVQETQI [LRRC4B, Q9NT99] | below the threshold
PRISRSQSEL [CCDC134, Q9H6E4] | below the threshold
DTTVPESEDL [MYOZ2, Q9NPC6] | below the threshold
